The reader will find reported inhibition values listed item by item below.
System: Endothelin-converting enzyme 1 (Sus scrofa)
Assay: Inhibition of endothelin-converting enzyme 1 partially purified from porcine primary aortic endothelial cells at 20 uM
Conditions: Endothelial cell
// note: answer is a bare numeric in %

compound: Cn1cc(C[C@H](CS)NC(=O)Cc2ccc(-c3ccccc3)cc2)c2ccccc21
measured: 68
--
compound: O=C(Cc1ccccc1)N[C@@H](CS)Cc1ccc(OCc2ccccc2)cc1
measured: 15
--
compound: CC(C)[C@H](CS)NC(=O)c1cccnc1
measured: 30
--
compound: O=C(N[C@@H](CS)Cc1ccccc1)c1cc2ccccc2cn1
measured: 76

Record summary for "O=C(CCc1cccnc1)N[C@@H](CS)Cc1ccccc1" : reported inhibition = 66

inhibition reading for O=C(CCC(C(=O)O)c1ccccc1)N[C@@H](CS)Cc1ccccc1 (stereo partly specified) : 48

Lab note: measured inhibition of "O=C(Cc1ccc(-c2ccccc2)cc1)N[C@@H](CS)CCc1ccccc1" was 16

Recorded inhibition (compound "O=C(Cc1cccnc1)N[C@@H](CS)Cc1ccccc1" ): 58

Looking up "O=C(N[C@@H](CS)Cc1ccccc1)c1ccccn1" , I see its inhibition listed as 52

----------
Below: a set of entries, each annotated with reported inhibition.
Test system: Endothelin-converting enzyme 1 (Sus scrofa)
Assay: Inhibition of endothelin-converting enzyme 1 partially purified from porcine primary aortic endothelial cells at 20 uM
Conditions: Endothelial cell
Write the number in % without appending the unit.

Reference set (5 entries):
compound: O=C(N[C@@H](CS)Cc1ccccc1)C1Cc2ccccc2CN1 (stereo partly specified)
measured: 33
//
compound: O=C(N[C@@H](CS)Cc1ccccc1)c1ccco1
measured: 54
//
compound: O=C(Cc1ccc(OCc2ccccc2)cc1)N[C@@H](CS)Cc1cccc2ccccc12
measured: 51
//
compound: O=C(N[C@@H](CS)Cc1ccccc1)c1ccncc1
measured: 48
//
compound: O=C(Cc1ccc(-c2ccccc2)cc1)N[C@@H](CS)Cc1cccnc1
measured: 91

The observed inhibition for "O=C(CCc1ccccc1)N[C@@H](CS)Cc1ccccc1" when tested with Endothelin-converting enzyme 1 (Sus scrofa) stands at 49

inhibition for Endothelin-converting enzyme 1 (Sus scrofa) with input "CC(C)C[C@H](CS)NC(=O)c1cccnc1" equals 21

Case "O=C(N[C@@H](CS)Cc1ccccc1)c1cccs1" , Endothelin-converting enzyme 1 (Sus scrofa), inhibition recorded as 67

Form field inhibition for item "O=C(Cc1ccc(OCc2ccccc2)cc1)N[C@@H](CS)Cc1ccc2ccccc2c1" on Endothelin-converting enzyme 1 (Sus scrofa): 10

Form field inhibition for item "CN(C(=O)Cc1ccccc1)[C@@H](CS)Cc1ccccc1" on Endothelin-converting enzyme 1 (Sus scrofa): 24
